Values were extracted from patent US7265103B2.

biological target: hα2A receptor (Homo sapiens); construct: expressed in transfected cells; host or cells: CHO cells; assay: Radioligand binding experiment for α2A-adrenergic receptor ([3H]-raulwolscine); details: CHO cell membranes with human α2A receptor, [3H]raulwolscine 1 nM; read-out: pIC50 α2A (converted)
Sequence (P08913 whole entry): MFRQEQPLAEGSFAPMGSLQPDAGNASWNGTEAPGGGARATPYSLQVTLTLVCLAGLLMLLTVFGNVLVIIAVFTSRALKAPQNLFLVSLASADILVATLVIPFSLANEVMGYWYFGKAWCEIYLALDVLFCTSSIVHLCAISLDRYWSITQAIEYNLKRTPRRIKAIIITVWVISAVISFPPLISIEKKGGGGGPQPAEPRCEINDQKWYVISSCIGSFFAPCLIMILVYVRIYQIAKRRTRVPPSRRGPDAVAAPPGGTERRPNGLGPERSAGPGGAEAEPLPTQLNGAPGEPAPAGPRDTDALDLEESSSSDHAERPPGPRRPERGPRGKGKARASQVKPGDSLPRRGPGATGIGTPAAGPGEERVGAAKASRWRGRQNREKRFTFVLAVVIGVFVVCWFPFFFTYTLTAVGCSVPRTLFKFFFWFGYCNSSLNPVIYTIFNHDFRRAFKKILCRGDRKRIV
MEASURED PROPERTY: log10 of IC50 (log10 of the value in nM)

| COMPOUND | log10 of IC50 |
| --- | --- |
| COCC(=O)N1CCOc2cc3c(cc21)OCC1C3=NOC1CN1CCN(C/C(C)=C/c2ccccc2)CC1 (stereo not shown) | 0.50 |
| COc1cc2c(cc1N1CCC(C)CC1)OCC1C2=NOC1CN1CCN(CC(C)=Cc2ccc(F)cc2)CC1 (stereo not shown) | 1.90 |
| CNc1ccc2c(c1)OCC1C2=NOC1CN1CCN(CC(C)=Cc2ccccc2)CC1 (stereo not shown) | 0.40 |
| CC(=Cc1ccccc1)CN1CCN(CC2ON=C3c4ccc(N(C)CCO)cc4OCC32)CC1 (stereo not shown) [Compound 31] | 0.10 |
| CCC(C)Nc1ccc2c(c1)OCC1C2=NOC1CN1CCN(CC(C)=Cc2ccc(F)cc2)CC1 (stereo not shown) | 2.20 |
| C/C(=C\c1ccccc1)CN1CCN(CC2ON=C3c4ccc(NC(=O)[C@@H]5CCCN5)cc4OCC32)CC1 (stereo partly shown) | 0.70 |
| COc1cc2c(cc1NCCN1CCCC1)OCC1C2=NOC1CN1CCN(CC(C)=Cc2ccccc2)CC1 (stereo not shown) | 0.70 |
| C/C(=C\c1cccc(F)c1)CN1CCN(CC2ON=C3c4cc5c(cc4OCC32)NCCO5)CC1 (stereo not shown) | 0.60 |
| C/C(=C\c1ccccc1)CN1CCN(CC2ON=C3c4cc(N5CCOCC5)ccc4OCC32)CC1 (stereo not shown) | 1.10 |
| COc1cc2c(cc1NC(=O)C1CC1)OCC1C2=NOC1CN1CCN(CC(C)=Cc2ccccc2)CC1 (stereo not shown) | 0.60 |
| CC(=Cc1ccccc1)CN1CCN(CC2ON=C3c4ccc(N(C)Cc5ccccc5)cc4OCC32)CC1 (stereo not shown) [Compound 48] | 1.60 |
| CC(=Cc1ccc(F)cc1)CN1CCN(CC2ON=C3c4ccc(N5CC=CCC5)cc4OCC32)CC1 (stereo not shown) | 1.60 |
| CCN(CC)CCN(C)c1ccc2c(c1)OCC1C2=NOC1CN1CCN(CC(C)=Cc2ccc(F)cc2)CC1 (stereo not shown) | 0.80 |
| CC(=Cc1ccc(F)cc1)CN1CCN(CC2ON=C3c4ccc(N5CCCC5)cc4OCC32)CC1 (stereo not shown) | 1.10 |
| CC(=Cc1cccc(F)c1)CN1CCN(CC2ON=C3c4ccc(N(C)CCO)cc4OCC32)CC1 (stereo not shown) | 0.50 |
| CC(=Cc1ccccc1)CN1CCN(CC2ON=C3c4ccc(NC(=O)Nc5cccc(F)c5)cc4OCC32)CC1 (stereo not shown) | 1.90 |
| CC(=Cc1ccccc1)CN1CCN(CC2ON=C3c4ccc(Nc5ccc(C)c(C)c5)cc4OCC32)CC1 (stereo not shown) | 1.80 |
| CC(=Cc1ccc(F)cc1)CN1CCN(CC2ON=C3c4ccc(NCC(C)O)cc4OCC32)CC1 (stereo not shown) | 1.40 |
| COc1cc2c(cc1N)OCC1C2=NOC1CN1CCN(CC(C)=Cc2cccc(F)c2)CC1 (stereo not shown) | 0.80 |
